Data provenance: the supplement of paper PMC10567573

B1: RBBP5 (parent)
chain: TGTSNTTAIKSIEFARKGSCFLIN

- Variants of: B1
- experimental-details: protein stability index of a GFP-peptide fusion (GPS, HEK-293T) (PSI 1-6); higher = more stable;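 also: lentivirally expressed fusions sorted by FACS into six bins by GFP to DsRed ratio, PSI derived from sequencing read proportions per bin multiplied by bin number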
- condition-info: c terminus: a fixed tail appended
Everything with protein stability index lower than 2 is class 0; everything else, including exactly 2, is class 1.

Reported protein stability index reaches at least 2 for A15Y ?
class 0

Reported protein stability index reaches at least 2 for C20Y ?
class 1

Reported protein stability index reaches at least 2 for E13F ?
class 1

Reported protein stability index reaches at least 2 for N5A ?
class 1
